Source: the RNAGym collection of RNA variant scans (doi:10.1073/pnas.2313332121)

B1: TPR t1 (parent)
chain: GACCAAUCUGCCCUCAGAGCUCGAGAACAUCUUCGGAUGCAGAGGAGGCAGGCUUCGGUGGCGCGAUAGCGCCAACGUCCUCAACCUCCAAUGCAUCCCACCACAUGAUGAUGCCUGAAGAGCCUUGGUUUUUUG

# Variants of: B1
# PROTOCOL: polymerase ribozyme fitness, log enrichment relative to wild type (log ratio); higher = more active; in vitro selection for triplet polymerase activity
Could you please report measured polymerase ribozyme fitness (log ratio) for the items listed next?
Answers are plain numbers.

See these solved cases before continuing.
> print(dat)
      mutation.code                    experimental.endpoint  observed
1   C20G G60A G120C  polymerase ribozyme fitness (log ratio)     -4.56
2  C97U G110U A111G  polymerase ribozyme fitness (log ratio)     -3.06
3        C73G A103C  polymerase ribozyme fitness (log ratio)     -4.89

Provide the reported polymerase ribozyme fitness (log ratio) of each entry below, same order.
1. G17C C49G C62A
2. G39C U55A C56A G63U A121U
3. C11G G57U U67G G120A
4. U9G G117A
5. C86U G120A U130C G135U
6. U55G
7. C79A A95U

[-7.71, -4.47, -6.74, 0.595, -0.0631, 0.0266, -1.9]

I would be grateful if you could share the reported polymerase ribozyme fitness (log ratio) for G10C C20A G39C A46C .
-5.66
